# Tested on: MOLM13
# test summary: MTT cell viability assay, AML cell line
# Format: cell-based
# condition summary: Homo sapiens, MOLM-13, 72 h, read-out: mean IC50

{"molecule": "C1=C/COCc2cc(ccc2OCCN2CCCC2)Nc2nccc(n2)-c2cccc(c2)COC/1 [Pacritinib]", "IC50, nM": 73}

* * *

# target or system: FLT3 TKD mutants
# test summary: KdELECT competitive binding assay
# condition summary: read-out: Kd range

{"compound": "C1=C/COCc2cc(ccc2OCCN2CCCC2)Nc2nccc(n2)-c2cccc(c2)COC/1 [Pacritinib]", "Kd": "0.69 to 17 nM"}

* * *

# Tested on: Ba/F3 cells expressing FLT3-ITD
# test summary: MTT cell viability assay
# Assay type: cell-based
# condition summary: Mus musculus, BaF3, 72 h
pIC50: −log10 of the molar value.
measurement type: pIC50

{"mol": "C1=C/COCc2cc(ccc2OCCN2CCCC2)Nc2nccc(n2)-c2cccc(c2)COC/1", "target or system": "Ba/F3 cells expressing FLT3-ITD", "measurement type": "pIC50", "measurement": 6.88}
